The molecules listed here are annotated with their TGI.
tested on: A549 NSCLC; assay: NCI tumour cell line growth inhibition, 48 h
Where a SMILES comes first, the peptide text is derived from it. Bridges are numbered along the chain shown (N, C = ends). [ ]: non-standard residue; d: D form. The star is where a group is joined. Cya = N[CH](CS(=O)(=O)O)C(=O)O; X49 = CC(C)CCCCCCCC(O)CC(=O)*; GABA = NCCCC(=O)O
endpoint: TGI

molecule="OC1(c2ccccc2)CSc2ncnn21 (centres undefined)" endpoint=TGI observedmeasurement="> 100 µM"
molecule="CC(C)CCCCCCCC(O)CC(=O)NC(CS(=O)(=O)O)C(=O)NC(CC(C)C)C(=O)NCCCC(=O)NC(Cc1cnc[nH]1)C(=O)NC(C)C(=O)NC1C(=O)NC(C(C)O)C(=O)NC(Cc2cnc[nH]2)C(=O)NC(C)C(=O)NC(C(C)O)C(=O)OC1C (centres undefined) (X49-[Cya]L[GABA]HATTHAT; ester 6-C; configuration not given here)" endpoint=TGI observedmeasurement="> 25 µM"
molecule=COc1ccc(-n2sc3ncc(C)cc3c2=O)cc1 endpoint=TGI observedmeasurement="44.7 µM"
molecule=COC(=O)c1cc2cc(OC)c(OC)cc2cc(C(=O)OC)c1=O endpoint=TGI observedmeasurement="> 100 µM"
molecule=CCCCSC(=CC(=O)c1cccc(C(=O)C=C(SCCCC)SCCCC)n1)SCCCC endpoint=TGI observedmeasurement="> 100 µM"
molecule=Nc1ccc(N)c2c1C(=O)c1ccccc1C2=O endpoint=TGI observedmeasurement="> 100 µM"
molecule=CC(C)(NO)/C(=N\O)c1ccco1 endpoint=TGI observedmeasurement="> 100 µM"
molecule="O=C1NC(c2cccc3ccccc23)Nc2ccc(O)cc21 (centres undefined)" endpoint=TGI observedmeasurement="> 139 µM"
molecule=CCN(CC)S(=O)(=O)c1ccc2nc(NC(=O)OC)[nH]c2c1 endpoint=TGI observedmeasurement="> 100 µM"

---

tested on: M14 melanoma
Where a SMILES comes first, the peptide text is derived from it. [ ]: non-standard residue; d: D form. The star is where a group is joined. Nle = CCCC[C@H](N)C(=O)O; Cbz = O=C(OCc1ccccc1)*
Outcomes: T for active, F for inactive

compound=CC[C@H](Nc1cc(C)nc(N)n1)c1nc2cccc(NCc3ccc(C(=O)NO)cc3)c2c(=O)n1-c1ccccc1 targetofassay="M14 melanoma" classassignment=F
compound="COc1ccc2c(c1)SC1=NNC(Cl)C(=O)N12 (centres undefined)" targetofassay="M14 melanoma" classassignment=F
compound=Cc1ccc2c(c1)c(C1=C(c3cn(C)c4ccccc34)C(=O)NC1=O)cn2C targetofassay="M14 melanoma" classassignment=F
compound="CCCC[C@@H](C=O)NC(=O)[C@H](CC(C)C)NC(=O)[C@H](CC(C)C)NC(=O)OCc1ccccc1 (Cbz-Leu-Leu-[Nle]-aldehyde)" targetofassay="M14 melanoma" classassignment=T
compound=COc1cc(C(=O)/C=C/c2c(C)n([O-])c3ccc(C(F)(F)F)cc3[n+]2=O)cc(OC)c1OC targetofassay="M14 melanoma" classassignment=F
compound=Cc1nc2ccccn2c1NC(=O)NNC(=S)Nc1ccc(Cl)cc1 targetofassay="M14 melanoma" classassignment=F
compound=Clc1ccc(-c2ccc(CNCC3CCNCC3)o2)c(-c2ccccc2)c1 targetofassay="M14 melanoma" classassignment=F
compound=CC/C(=C(\c1ccc(Cl)cc1)c1ccc(OCCN2CCCCC2)cc1)c1ccc(O)cc1 targetofassay="M14 melanoma" classassignment=F
compound=O=C1OC(c2cccc(C(F)(F)F)c2)(c2cccc(C(F)(F)F)c2)c2ccc3ccccc3c21 targetofassay="M14 melanoma" classassignment=F
compound=COC(=O)c1ccc2[nH]c(O)c(C(=Nc3ccc(N(C)C(=O)CN4CCN(C)CC4)cc3)c3ccc(OC)cc3)c2c1 targetofassay="M14 melanoma" classassignment=F
compound=O=C(O)CN1CCN(CC(=O)O)CCN(CC(=O)O)CC1 targetofassay="M14 melanoma" classassignment=F
compound=Clc1nc(Cl)c2ncn(CC#CCn3cnc4c(Cl)nc(Cl)nc43)c2n1 targetofassay="M14 melanoma" classassignment=F
compound=Cc1cc2nc3c4cc(C=O)ccc4n(CCN(C)C)c3nc2cc1C targetofassay="M14 melanoma" classassignment=F
compound=COc1ccc(/C(COc2ccc3c(c2)oc(=O)c2cc(OC)ccc23)=N/O)cc1 targetofassay="M14 melanoma" classassignment=F
